Cited source for all entries: patent US20100135997A1

target: T1, HLA-A*0201 loaded with the Carcinoembryonic antigen (CEA)-derived … peptide (biotin on the C-terminal biotinylation tag); assay: Biacore SPR
T1 construct: Soluble, biotinylated, immobilised on a streptavidin chip
Entries and their measured koff follow.
Endpoint name: koff

| Binder | Recorded result |
| --- | --- |
| SEQ ID NO 124 (receptor, mutated soluble two domain ILT-2) MHLPKPTLWAEPGSVITMDQPVTLRCQGGQETQEYRLYREKKTAPWITRIPQELVKKGQFPIPSITWEHAGRYRCYYGSDTSQWSASSDPLELVVTGVYIKPTLSAQPSPVVNSGGNVTLQCDSQVAFDGFILCKEGEDEHPQCDNSQPHARGSSRAIFSVGPVSPSRRWWYRCYAYDSNSPYEWSLPSDLLELDVDG | ≤ 2 s⁻¹ |
| SEQ ID NO 7 (receptor, mutated soluble two domain ILT-2) MAGHLPKPTLWAEPGSVITMDQPVTLRCQGGQETQEYRLYREKKTAPWITRIPQELVKKGQFPIPSITWEHAGRYRCYYGSDTSQWSASSDPLELVVTGVYIKPTLSAQPSPVVNSGGNVTLQCDSQVAFDGFILCKEGEDEHPQCLNSQPHARGSSRAIFSVGPVSPSRRWWYRCYAYPIWTPYEWSLPSDLLELDVDG | ≤ 2 s⁻¹ |
| SEQ ID NO 45 (receptor, mutated soluble two domain ILT-2) MAGHLPKPTLWAEPGSVITMDQPVTLRCQGGQETQEYRLYREKKTAPWITRIPQELVKKGQFPIPSITWEHAGRYRCYYGSDTSQWSASSDPLELVVTGVYIKPTLSAQPSPVVNSGGNVTLQCDSQVAFDGFILCKEGEDEHPQCLNSQPHARGSSRAIFSVGPVSPSRRWWYRCYAYMSNSPYEWSLPSDLLELDVDG | ≤ 2 s⁻¹ |
